System: P. aeruginosa MH602 lasB reporter strain (PlasB: gfp(ASV))
Experiment: Quorum sensing inhibition assay, GFP fluorescence of lasB reporter strain
Assay type: cell-based, Pseudomonas aeruginosa
Conditions: Pseudomonas aeruginosa, read-out: Percentage inhibition of GFP fluorescence, 62.5 μM; ± standard deviation; NA: no activity
measuredAttribute: inhibition at 62.5 µM
// unit must come after the numeric part

Solved entries (count: 4):
Task: Requested read-out inhibition at 62.5 µM, target or system P. aeruginosa MH602 lasB reporter strain (PlasB: gfp(ASV)), entry CCCCCCCCCc1cn(CC(=O)Nc2nc3ccccc3[nH]2)nn1 [6d]
Result: 30.6%

Task: Moving on to the next molecule: O=C(Cn1cc(-c2cccc([N+](=O)[O-])c2)nn1)Nc1nc2ccccc2[nH]1 [6q]
Result: 28.2%

Task: Also check CCCCCCCc1cn(CC(=O)Nc2nc3ccccc3[nH]2)nn1 [6c]
Result: 25.7%

Task: Same lookup for Cc1cc2nc(NC(=O)Cn3cc(Cn4cc(Cl)ccc4=O)nn3)[nH]c2cc1C [7f] , please.
Result: 26.1%

Now consider a different molecule.
Task: What inhibition at 62.5 µM appears in the records for this molecule with P. aeruginosa MH602 lasB reporter strain (PlasB: gfp(ASV))? Cc1cc2nc(NC(=O)Cn3cc(-c4ccc(Br)cc4)nn3)[nH]c2cc1C [7h]
Result: 31.2%

---

So I've got a bunch of compounds here, and I need their inhibition at 62.5 µM values.
Tested on: P. aeruginosa MH602 lasB reporter strain (PlasB: gfp(ASV))
Assay: Quorum sensing inhibition assay, GFP fluorescence of lasB reporter strain
Type: cell-based, Pseudomonas aeruginosa
Settings: Pseudomonas aeruginosa, read-out: Percentage inhibition of GFP fluorescence, 62.5 μM; ± standard deviation; NA: no activity
Answers are plain numbers, in %.

In the examples that follow, each entry is paired with its recorded inhibition at 62.5 µM.
Task: Requested field: inhibition at 62.5 µM. Item: Cc1cc2nc(NC(=O)Cn3cc(-c4ccc([N+](=O)[O-])cc4)nn3)[nH]c2cc1C [7m]
Result: 21

Task: Cool, now O=C(Cn1cc(CCC(=O)Nc2nc3ccccc3[nH]2)nn1)Nc1ccccn1 [10b]
Result: 4.4

Task: Try this compound too: CCCc1cn(CC(=O)Nc2nc3ccccc3[nH]2)nn1 [6a]
Result: 25.1

Task: Another compound to look at: O=C(CCc1cn(CC(=O)NC2CCCCC2)nn1)Nc1nc2ccccc2[nH]1 [10a]
Result: 38.4

Task: Moving on to the next compound: Cc1cc2nc(NC(=O)Cn3cc(-c4ccc(O)cc4)nn3)[nH]c2cc1C [7j]
Result: 17.6

Task: // repeat for Cc1cc2nc(NC(=O)CCCc3cn(CC(=O)NC4CCCC4)nn3)[nH]c2cc1C [12a] and report
Result: 28.5

Provide inhibition at 62.5 µM for all items below, preserving their order.
1. O=C(Cn1cc(-c2ccc(C(F)(F)F)cc2)nn1)Nc1nc2ccccc2[nH]1 [6o]
2. Cc1cc2nc(NC(=O)Cn3cc(CSc4nc5ccccc5[nH]4)nn3)[nH]c2cc1C [7e]
3. Cc1ccc(-c2cn(CC(=O)Nc3nc4ccccc4[nH]3)nn2)cc1 [6k]

Result:
1: 57.5; 2: 15.1; 3: 36.8

---

Tested on: P. aeruginosa MH602 lasB reporter strain (PlasB: gfp(ASV))
Experiment: Quorum sensing inhibition assay, GFP fluorescence of lasB reporter strain
Format: cell-based, Pseudomonas aeruginosa
Details: Pseudomonas aeruginosa, read-out: Percentage inhibition of GFP fluorescence, 62.5 μM; ± standard deviation; NA: no activity
measuredAttribute: inhibition at 62.5 µM
Output should be the measured figure followed by the unit it is expressed in.

Task: GET /values?readout=inhibition at 62.5 µM&item= Cc1cc2nc(NC(=O)CCCc3cn(CC(=O)NC4CCCCC4)nn3)[nH]c2cc1C [12b]
Result: 5.35%

Task: Entry Cc1cc2nc(NC(=O)Cn3cc(-c4ccccc4)nn3)[nH]c2cc1C [7g] please
Result: 28.5%

Task: Query O=C(Cn1cc(-c2ccc(Cl)cc2)nn1)Nc1nc2ccccc2[nH]1 [6i] next
Result: 52.9%

Task: Same again, this time with O=C(Cn1cc(-c2ccc([N+](=O)[O-])cc2)nn1)Nc1nc2ccccc2[nH]1 [6p]
Result: 63.7%

Now look at this one.
Task: Which inhibition at 62.5 µM reading was recorded for the compound O=C(Cn1cc(Cn2cc(Cl)ccc2=O)nn1)Nc1nc2ccccc2[nH]1 [6f] ?
Result: 36.1%

Data credit: paper PMC9071802
